- Tested on: P. falciparum Dd2 Cytb V259L
- Assay: SYBR Green ABS proliferation assay, NCGC00473217 selected clone F06
- Assay type: cell-based, Plasmodium falciparum
- Conditions: Plasmodium falciparum, DD2, […]; averaged from three independent replicates; top concentration 29 µM; read-out: Average AC50 (Log[M]), NCGC00473217 clone F06 (Cytb V259L) (converted)
Listed below: log10 of AC50 values for each entry.
Values are log10 of AC50 in M.

Query string: Reported log10 of AC50 for CCCN1C(CC(C)C)=N[S+](=O)([O-])c2cc(NC(=O)c3cn(-c4ccccc4)cn3)ccc21 [NCGC00521102-01] : what is it?
Result string: -5.52

Query string: Reported log10 of AC50 for CCCN1C(CC(C)C)=N[S+](=O)([O-])c2cc(NC(=O)c3ccccc3)ccc21 [NCGC00510420-02] : what is it?
Result string: -5.95

Query string: Reported log10 of AC50 for CCCN1C(CC(C)C)=N[S+](=O)([O-])c2cc(NC(=O)c3ccc4ccccc4n3)ccc21 [NCGC00521161-01] : what is it?
Result string: -5.65

Query string: Reported log10 of AC50 for CCCN1C(CC(C)C)=N[S+](=O)([O-])c2cc(NC(=O)c3cc4c(s3)CCC4)ccc21 [NCGC00521150-01] : what is it?
Result string: -4.95

Query string: Reported log10 of AC50 for CCCN1C(CC(C)C)=N[S+](=O)([O-])c2cc(NC(=O)COc3ccccc3)ccc21 [NCGC00521094-01] : what is it?
Result string: -5.16

Query string: Reported log10 of AC50 for CCCN1C(CC(C)C)=N[S+](=O)([O-])c2cc(NC(=O)c3cccc(F)c3)ccc21 [NCGC00523538-01] : what is it?
Result string: -6.00

Query string: Reported log10 of AC50 for CCCN1C(CC(C)C)=N[S+](=O)([O-])c2cc(NC(=O)c3cncs3)ccc21 [NCGC00521052-01] : what is it?
Result string: -5.23

----------
- Tested on: P. falciparum Dd2 Cytb G131S
- Assay: SYBR Green ABS proliferation assay, NCGC00374598 selected clone C11
- Format: cell-based, Plasmodium falciparum
- Conditions: Plasmodium falciparum, DD2, cytochrome b mutant line, second value triple, c6; […]; read-out: log AC50, mean (converted)
Property Label: AC50 (µM)
Only the number, expressed in µM, is required.

Solved entries:
COc1ccc(-c2nc(C3CC3)nc3c2CCN(Cc2ccc(C#N)cc2)CC3)cc1 ... 7.5
CCCN1C(CC(C)C)=N[S+](=O)([O-])c2cc(NC(=O)c3ccc(Cl)cc3)ccc21 ... 0.2

Query string: Reported AC50 for CC(C)c1nc2c(c(-c3ccc(O)cc3)n1)CCN(CC1CCCCC1)CC2 : what is it?
Result string: 5.73

Query string: Reported AC50 for O=C(Nc1ccc2c(c1)[S+](=O)([O-])N=C1CCCN12)c1ccc(F)cc1 : what is it?
Result string: 17.8

Query string: Reported AC50 for CCc1nc2c(c(-c3ccc(O)cc3)n1)CCN(Cc1cccn1C)CC2 : what is it?
Result string: 18.8

Query string: Reported AC50 for O=C(c1ccc(C(F)(F)F)cc1)N1CCc2nc(C3CC3)nc(-c3ccc(Cl)cc3)c2CC1 : what is it?
Result string: 12.8

Query string: Reported AC50 for COc1ccc(-c2nc(C(C)C)nc3c2CCN(C(=O)c2ccccc2Cl)CC3)cc1 : what is it?
Result string: 2.28

Query string: Reported AC50 for c1ccc(OCCNc2nc(-c3cccnc3)nc3c2CCNCC3)cc1 : what is it?
Result string: 6.93

----------
- Assay: in vitro
- Conditions: human, HepG2-A16-CD81EGFP cells, uninfected
Property Label: viability at 48 h, 3 µM (%)
Only the number, expressed in %, is required.

Solved entries:
CCCCOc1ccc(C(=O)N/C(=C\c2cccc([N+](=O)[O-])c2)C(=O)OC(C)C)cc1 ... 100
C[C@H]1[C@@H]2[C@H]3OC(=O)[C@@H](C)[C@@H]3CC[C@@]2(C)CC[C@@H]1NC(=O)CC(C)(C)C ... 99
CN(C)CC(CCC(CN(C)C)C(O)(c1ccccc1)c1ccccc1)C(O)(c1ccccc1)c1ccccc1 (stereo not shown) ... 98
Cc1ccc(CSCc2ccc(C(=O)NC3CC3)o2)cc1 ... 88
CCn1c(/C=C/c2cc(Br)ccc2O)nc2ccccc2c1=O ... 101
CC1=C(C(=O)Nc2ccc(C)cc2C)C(c2ccc([N+](=O)[O-])cc2)n2ncc(C(=O)Nc3ccc(F)cc3)c2N1 (stereo not shown) ... 94.6
O[C@H]1CC[C@@H](Cc2cc(-c3ccc(F)cc3)on2)O[C@@H]1CNC1CCCCC1 ... 107
Cc1ccc(C)c(NC(=O)CN(C)C(=O)c2ccc(-c3ccc(Cl)cc3)o2)c1 ... 102

Query string: Reported viability at 48 h, 3 µM for c1ccc(CNc2nc(-c3ccccn3)nc3ccccc23)cc1 : what is it?
Result string: 87

Query string: Reported viability at 48 h, 3 µM for c1ccc2cc3c(NCCN4CCOCC4)ccnc3cc2c1 : what is it?
Result string: 92

Query string: Reported viability at 48 h, 3 µM for CCOC(=O)c1ccc2c(c1)[C@@H]1C=CC[C@@H]1[C@H](c1cccc(OC)c1OC)N2 : what is it?
Result string: 105

Query string: Reported viability at 48 h, 3 µM for COc1cccc(CN2CCC(Oc3ccc(-c4noc(C5CC5)n4)cc3)C2)c1 (stereo not shown) : what is it?
Result string: 96.6

Query string: Reported viability at 48 h, 3 µM for CC1=C(C(=O)Nc2ccc(C)cc2C)C(c2cc(Br)ccc2F)n2ncc(C(=O)Nc3ccc(C)cc3)c2N1 (stereo not shown) : what is it?
Result string: 107

Query string: Reported viability at 48 h, 3 µM for O=C(O)c1ccc(N/N=C/c2cn(-c3ccccc3)nc2-c2cccs2)cc1 : what is it?
Result string: 103

Query string: Reported viability at 48 h, 3 µM for O=C(Nc1ccc(N2CCN(c3ncccc3C(F)(F)F)CC2)nc1)c1cccs1 : what is it?
Result string: 95

Query string: Reported viability at 48 h, 3 µM for COc1ccc(-c2noc(-c3cccn3CC(=O)Nc3ccccc3)n2)cc1F : what is it?
Result string: 105

----------
Listed below: viability at 48 h, 1 µM values for each entry.
- Assay: in vitro
- Conditions: human, HepG2-A16-CD81EGFP cells, uninfected
Only the number, expressed in %, is required.

Solved entries:
CCO.Nc1nc(N)c2cc(Sc3ccc4ccccc4c3)ccc2n1 ... 103
CCCCCCCNC(=O)C1(CC2CC(c3ccc(Cl)cc3)=NO2)CCN(C(=O)c2cc(OCC)c(OCC)c(OCC)c2)CC1 (centres unmarked) ... 103
O=C(Nc1cccnc1)c1cc(-c2cccnc2)nc2ccc(Br)cc12 ... 109
Cc1ccc(S(=O)(=O)NC(=O)Nc2ccc(N(C)C)cc2)cc1 ... 100
Oc1ccc(Cl)cc1CNCc1cccc2ccccc12 ... 103

Query string: Reported viability at 48 h, 1 µM for COc1ccc(C2c3ccc4ccccc4c3Oc3ncn(CCCN(C)C)c(=N)c32)cc1 (centres unmarked) : what is it?
Result string: 109

Query string: Reported viability at 48 h, 1 µM for Cc1cc(NC2C3CC4CC(C3)CC2C4)n2nnnc2n1 (centres unmarked) : what is it?
Result string: 99

Query string: Reported viability at 48 h, 1 µM for O=S(=O)(c1ccc2ccccc2c1)N1CCN(/C(S)=N/c2ccccc2F)CC1 : what is it?
Result string: 103

----------
- Test system: HepG2-A16-CD81EGFP cells
- Conditions: HepG2, 3 µM compound treatment (10 mM stocks), replicate 1, normalized, average of 2 wells
Listed below: HepG2 3uM growth rep1 values for each entry.
Only the number, expressed in %, is required.

Solved entries:
O=C(Nc1ccc(Nc2ccncc2)cc1)c1ccc(Nc2ccnc3ccc([N+](=O)[O-])cc23)cc1 ... 89
O=C(Nc1ccc(S(=O)(=O)N2CCOCC2)cc1)c1cc(-c2cc(Cl)ccc2O)n[nH]1 ... 70

Query string: Reported HepG2 3uM growth rep1 for COc1cc(O)c(C(CCN2CCCCC2)c2ccc(N(C)C)cc2)c(OC)c1 (centres unmarked) : what is it?
Result string: 87

Query string: Reported HepG2 3uM growth rep1 for C/C(=N\Nc1nc(-c2ccccc2O)nc2ccccc12)c1ccccc1 : what is it?
Result string: 91

Query string: Reported HepG2 3uM growth rep1 for COc1ccccc1CNCC(O)Cn1c2ccccc2c2ccccc21 (centres unmarked) : what is it?
Result string: 92

Query string: Reported HepG2 3uM growth rep1 for Cc1ccc(NC2=C/C(=N/S(=O)(=O)c3cccs3)c3ccccc3C2=O)cc1C : what is it?
Result string: 77

Query string: Reported HepG2 3uM growth rep1 for COc1cc(NC(=O)c2cc([N+](=O)[O-])ccc2NC(=O)CNC2CCCCC2C)cc(OC)c1 (centres unmarked) : what is it?
Result string: 90

Query string: Reported HepG2 3uM growth rep1 for O=C(CSc1nc(Nc2ccccc2)nc(N2CCOCC2)n1)Nc1cc(Cl)ccc1O : what is it?
Result string: 83
